System: Escherichia coli 13897
Experiment: MIC, solid dilution method
Type: cell-based
Settings: E. coli 13897, CRE clinical isolate, MHA agar, 37° C., 16-20 hours, read-out: MIC
Protocol: The above-mentioned glycerol-preserved strains were taken out from the −80° C. refrigerator, streaked and inoculated on MHA plates, labeled, and cultured overnight in a 37° C. incubator. […] The minimum inhibitory concentrations of the compounds against the CRE and CSE strains were determined by the solid dilution method, and the results are shown in Tables 3 and 4.
We begin with a simple list: items and their reported MIC.

>  <compound>
C[C@@H](O)[C@H]1C(=O)N2C(C(=O)O)=C(S[C@@H]3CN[C@H](C(=O)N(C)C)C3)[C@H](C)[C@H]12 [Meropenem, reference compound]

>  <MIC, µg/mL>
4

$$$$
>  <compound>
C[C@H]1[C@H](NC(=O)/C(=N\OC(C)(C)C(=O)O)c2csc(N)n2)C(=O)N1S(=O)(=O)O [Aztreonam, aztreonam, reference compound]

>  <MIC, µg/mL>
64

$$$$
>  <compound>
CC1(C)[C@H](NC(=O)/C(=N\O[C@@H](COc2ccc3c(c2)CN(C(=N)N(CCCN)CCCN)C3)C(=O)O)c2csc(N)n2)C(=O)N1OS(=O)(=O)O [Compound 32]

>  <MIC, µg/mL>
0.06

$$$$
>  <compound>
CC1(C)[C@H](NC(=O)/C(=N\O[C@@H](COc2ccc3c(c2)CN(C(=N)N[C@@H]2CCCNC2)C3)C(=O)O)c2csc(N)n2)C(=O)N1OS(=O)(=O)O [Compound 41]

>  <MIC, µg/mL>
0.06

$$$$
>  <compound>
CC1(C)[C@H](NC(=O)/C(=N\O[C@@H](COc2ccc3c(c2)CN(C(=N)NOCCN)C3)C(=O)O)c2csc(N)n2)C(=O)N1OS(=O)(=O)O [Compound 43]

>  <MIC, µg/mL>
0.25

$$$$
>  <compound>
CC1(C)[C@H](NC(=O)/C(=N\O[C@@H](COc2ccc3c(c2)CN(C(=N)NCCN)C3)C(=O)O)c2csc(N)n2)C(=O)N1OS(=O)(=O)O [Compound 44]

>  <MIC, µg/mL>
0.125

$$$$
>  <compound>
CC1(C)[C@H](NC(=O)/C(=N\O[C@@H](COc2ccc(C(=N)N[C@@H]3CCCNC3)cc2)C(=O)O)c2csc(N)n2)C(=O)N1OS(=O)(=O)O [AIC499, reference compound]

>  <MIC, µg/mL>
0.25

$$$$
>  <compound>
CC1(C)[C@H](NC(=O)/C(=N\O[C@@H](COc2ccc3c(c2)CN(/C(=N\[C@@H]2CCCNC2)N[C@@H]2CCCNC2)C3)C(=O)O)c2csc(N)n2)C(=O)N1OS(=O)(=O)O [Compound 46]

>  <MIC, µg/mL>
0.125

$$$$

====

tested on: Klebsiella oxytoca 14151; test: MIC, solid dilution method; assay type: cell-based; conditions: K. ox 14151, CRE clinical isolate, MHA agar, 37° C., 16-20 hours, read-out: MIC

>  <molecule>
CC1(C)[C@H](NC(=O)/C(=N\O[C@@H](COc2ccc3c(c2)CN(C(=N)N(CCCN)CCCN)C3)C(=O)O)c2csc(N)n2)C(=O)N1OS(=O)(=O)O [Compound 32]

>  <MIC (µg/mL)>
0.125

$$$$
>  <molecule>
C[C@@H](O)[C@H]1C(=O)N2C(C(=O)O)=C(S[C@@H]3CN[C@H](C(=O)N(C)C)C3)[C@H](C)[C@H]12 [Meropenem, reference compound]

>  <MIC (µg/mL)>
16

$$$$
>  <molecule>
CC1(C)[C@H](NC(=O)/C(=N\O[C@@H](COc2ccc3c(c2)CN(/C(=N\[C@@H]2CCCNC2)N[C@@H]2CCCNC2)C3)C(=O)O)c2csc(N)n2)C(=O)N1OS(=O)(=O)O [Compound 46]

>  <MIC (µg/mL)>
0.25

$$$$
>  <molecule>
CC1(C)[C@H](NC(=O)/C(=N\O[C@@H](COc2ccc3c(c2)CN(C(=N)NCCN)C3)C(=O)O)c2csc(N)n2)C(=O)N1OS(=O)(=O)O [Compound 44]

>  <MIC (µg/mL)>
0.25

$$$$
